- protocolText: chemical genetic growth profiling, strain panel (AID 1159580);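 further: tested at 20 µM; growth read once vehicle control cultures reached saturation at 30 °C; 1 = growth at the plate median or of vehicle wells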
- testConditions: S. cerevisiae deletion strains, growth OD, locus YMR307W, strain GAS1
The whole screen tested about 5,500 compounds, of which about 2,000 (36%) were called active. Roughly 18% stayed inconclusive and do not appear here. No stated cut-off is given here; in the data, active means normalized growth mostly below about 0.91 (no sharp cut-off); inconclusive means no clear call, values can overlap the other calls; inactive means mostly above about 0.92. The list shows a part of the results.
Possible outcomes: T for active, F for inactive

INSERT INTO assay_data (compound, assignedlabel) VALUES
  ('O=c1ccc2ccc(O)c(O)c2o1', 'F'),
  ('c1ccc2c(c1)[nH]c1cnccc12', 'F'),
  ('O=C1c2ccccc2C(=O)c2c1ccc(O)c2O', 'T'),
  ('CSc1sc(-c2ccn[nH]2)c(-c2ccccc2)c1C#N', 'T'),
  ('COc1c2occc2cc2ccc(=O)oc12', 'F'),
  ('COc1ccc2c(c1)[nH]c1c(C)nccc12', 'F'),
  ('COC(=O)c1cc2c(cn1)[nH]c1ccccc12', 'F'),
  ('CCOC(=N)c1ccc(F)c(Cl)c1', 'F'),
  ('O=C1c2ccc(O)c(O)c2C(=O)c2c(O)ccc(O)c21', 'F'),
  ('C=CCN1CCC23c4c5ccc(O)c4O[C@H]2C(=O)CC[C@@]3(O)C1C5 (stereo partly drawn)', 'F'),
  ('CCN(CC)CCNC(=O)COc1ccc(OC)cc1', 'F'),
  ('CCCCC/C=C\C/C=C\C/C=C\C/C=C\CCCC(=O)O', 'F'),
  ('NCCNC(=O)c1ncsc1-c1cccc(F)c1', 'F');

* * *

- protocolText: chemical genetic growth profiling, strain panel (AID 1159580);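 further: tested at 20 µM; growth read once vehicle control cultures reached saturation at 30 °C; 1 = growth at the plate median or of vehicle wells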
- testConditions: S. cerevisiae deletion strains, growth OD, locus YNL222W, strain SSU72, stronger effect = lower value
Out of some 5,500 compounds screened, about 2,000 (36%) were called active. About 18% were inconclusive and are not listed. The list shows a part of the results.
readoutType: normalized growth

INSERT INTO results (compound, readouttype, measuredresult) VALUES
  ('CN(NC(=S)Nc1cc(Cl)ccc1Cl)c1ccc(C(F)(F)F)cc1[N+](=O)[O-]', 'normalized growth', 0.982),
  ('O=C(c1ccc(Cl)cc1)N1CCN(c2ccc(C(F)(F)F)cn2)CC1', 'normalized growth', 0.982),
  ('N#C/C(=C\c1ccc(C(F)(F)F)cc1)c1ccc(O)cc1', 'normalized growth', 0.964),
  ('CC(/C=C/c1ccccc1)=N/OC(=O)c1ccccc1Cl', 'normalized growth', 0.984),
  ('N#CC(C#N)=NNc1ccc(C(F)(F)F)cc1', 'normalized growth', 0.131),
  ('CCCCCc1ccc(-c2nc(SCC(C)=O)n[nH]2)cc1', 'normalized growth', 0.948),
  ('O=C(Oc1ccc(C2SCCS2)cc1)c1cccs1', 'normalized growth', 0.999),
  ('O=C(SCc1c(Cl)cccc1Cl)c1ccc([N+](=O)[O-])o1', 'normalized growth', 0.971),
  ('COC(=O)c1ccc(Oc2c(C(F)(F)F)oc3cc(O)ccc3c2=O)cc1', 'normalized growth', 0.979),
  ('CSc1sc(-c2ccn[nH]2)c(-c2ccccc2)c1C#N', 'normalized growth', 0.977),
  ('C(=NC(N=Cc1ccccc1)c1ccccc1)c1ccccc1 (stereo not drawn)', 'normalized growth', 0.99),
  ('N/C(=N/OC(=O)c1ccccc1Cl)c1ccc2nonc2c1', 'normalized growth', 0.968),
  ('CCCCCc1ccc(S(=O)(=O)Nc2ncc(C)cc2Br)cc1', 'normalized growth', 0.951),
  ('CN(C)c1nc(=S)ss1', 'normalized growth', 0.861),
  ('O=C(NNc1c(Cl)cccc1Cl)c1ccc([N+](=O)[O-])o1', 'normalized growth', 0.94),
  ('N/C(=N/OC(=O)c1ccccc1Cl)c1cccc(CS(=O)(=O)c2ccc(Cl)cc2)c1', 'normalized growth', 0.981),
  ('O=C(Nc1ccc(OC(F)(F)F)cc1)Nc1cncc(C(F)(F)F)c1', 'normalized growth', 0.994),
  ('CSc1nc(Sc2n[nH]c(-c3ccccc3)n2)cc(Sc2n[nH]c(-c3ccccc3)n2)n1', 'normalized growth', 1.01),
  ('NNC(=O)COc1ccc(C2SCCS2)cc1', 'normalized growth', 0.934),
  ('CC(=O)Oc1ccc2c(=O)c(Oc3ccc(Cl)cc3)c(C)oc2c1', 'normalized growth', 0.97),
  ('O=C(OCc1ccc(Oc2ccc(Cl)cc2Cl)c([N+](=O)[O-])c1)c1ccc([N+](=O)[O-])o1', 'normalized growth', 0.976),
  ('CCOC(=O)C1C(c2ccc(Br)cc2)C(C(=O)OCC)C(O)(C(F)(F)F)NC1(O)C(F)(F)F (stereo not drawn)', 'normalized growth', 0.999),
  ('Nc1ccc(N2CCN(c3ccc(C(F)(F)F)cn3)CC2)nc1', 'normalized growth', 0.956);
